Just for reference, ChEMBL document CHEMBL3991601 is where these values come from.

target: Calcium/calmodulin-dependent protein kinase type II subunit gamma (Homo sapiens, UniProt Q13555); also: in the data inactive means no Kd found up to 30 µM
Sequence (Q13555 whole entry): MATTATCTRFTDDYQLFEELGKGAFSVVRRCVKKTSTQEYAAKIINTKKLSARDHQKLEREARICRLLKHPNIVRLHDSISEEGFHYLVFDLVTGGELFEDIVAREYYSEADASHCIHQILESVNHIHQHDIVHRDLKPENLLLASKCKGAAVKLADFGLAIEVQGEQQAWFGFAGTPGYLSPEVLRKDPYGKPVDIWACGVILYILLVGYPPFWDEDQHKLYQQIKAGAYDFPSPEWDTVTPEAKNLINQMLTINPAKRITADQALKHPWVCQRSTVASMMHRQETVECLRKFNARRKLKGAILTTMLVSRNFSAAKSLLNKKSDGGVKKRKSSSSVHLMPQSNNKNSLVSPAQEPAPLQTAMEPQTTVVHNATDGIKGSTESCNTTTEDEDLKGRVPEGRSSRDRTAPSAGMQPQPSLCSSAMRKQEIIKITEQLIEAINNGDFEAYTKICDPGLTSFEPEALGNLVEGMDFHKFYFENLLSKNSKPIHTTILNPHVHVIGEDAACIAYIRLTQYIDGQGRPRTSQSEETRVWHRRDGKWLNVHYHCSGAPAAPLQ
Calls of active or inactive are those of the source.
Outcomes: 1 (active), 0 (inactive)

> print(dat)
                                    molecule  qualitative.label
 1  C=CC(=O)Nc1cccc(Nc2nc(Nc3ccc(N4CCN(C(C)=O)CC4)cc3OC)ncc2C(F)(F)F)c1                  0
 2  COc1cccc2cc(-c3nc([C@H]4CC[C@H](C(=O)O)CC4)n4ncnc(N)c34)[nH]c12                  0
 3  COc1cc2ncnc(Nc3ccc(F)c(Cl)c3)c2cc1NC(=O)/C=C/CN1CCCCC1 [DACOMITINIB ANHYDROUS]                  0
 4  COCCN1CCN(Cc2ccc(-c3n[nH]c4c3C(=O)c3c(NC(=O)NN5CCOCC5)cccc3-4)cc2)CC1                  0
 5  Cn1c(=O)n(-c2ccc(C(C)(C)C#N)cc2)c2c3cc(-c4cnc5ccccc5c4)ccc3ncc21                  0
 6  Cc1cc(-c2cc(OC(=O)c3ccccc3)ccc2Cl)cc2nnc(Nc3ccc(OCCN4CCCC4)cc3)nc12                  0
 7  C#Cc1cccc(Nc2ncnc3cc4c(cc23)OCCOCCOCCO4)c1                  0
 8  Cn1c(=O)c(F)c(Nc2ccc(I)cc2F)c2c(=O)n(C[C@@H](O)CO)cnc21                  0
 9  O=C(O)c1ccc2c(c1)nc(Nc1cccc(Cl)c1)c1ccncc12                  0
10  CNC(=O)c1cc(COc2nnc(Nc3ccc(Cl)cc3)c3ccoc23)ccn1                  0
11  COc1ccc2c(OCc3nnc4ccc(-c5ccccc5)nn34)ccnc2c1                  0
12  COc1cc(F)c(F)c(Nc2ccc(I)cc2F)c1NS(=O)(=O)C1(C[C@H](O)CO)CC1                  0
13  C=CCn1c(=O)c2cnc(Nc3ccc(N4CCN(C)CC4)cc3)nc2n1-c1cccc(C(C)(C)O)n1                  0
14  Cc1ccc(C(=O)Nc2ccc(Oc3cc4cnn(C)c4cc3-c3cn[nH]c3)c(F)c2)c(=O)n1-c1ccc(F)cc1                  0
15  CCN1CCN(Cc2ccc(Nc3ncc(F)c(-c4cc(F)c5nc(C)n(C(C)C)c5c4)n3)nc2)CC1                  1
16  S=C(NCc1ccc2c(c1)OCO2)N1CCN(c2ncnc3c2oc2ccccc23)CC1                  0
17  COc1cc2nccc(Oc3ccc(NC(=O)C4(C(=O)Nc5ccc(F)cc5)CC4)cc3)c2cc1OC [CABOZANTINIB]                  0
18  O=S(=O)(c1cccc2c(O)nccc12)N1CCCNCC1 [HYDROXYFASUDIL]                  0
19  COc1cc2ncnc3c2cc1OCCCCCN(C)Cc1ccc(Br)cc1N3                  0
20  CCc1cc2c(cc1N1CCC(N3CCOCC3)CC1)C(C)(C)c1[nH]c3cc(C#N)ccc3c1C2=O                  0
21  O=C(NOC[C@H](O)CO)c1ccc(F)c(F)c1Nc1ccc(I)cc1F                  0
22  NC[C@@](O)(c1ccc(Cl)cc1)c1ccc(-c2cn[nH]c2)cc1                  0
23  Cn1cc(-c2[nH]c3cc(NC(=O)[C@H](N)C4CCCCC4)cc4c3c2C=NNC4=O)cn1                  0
24  NC(=O)c1ccc(N(C(N)=O)c2c(F)cccc2F)nc1-c1ccc(F)cc1F                  0
25  Cc1c(NC(=O)OC[C@@H]2COCCN2)cn2ncnc(Nc3ccc4c(cnn4Cc4cccc(F)c4)c3)c12                  0
26  O[C@H]1CC[C@H](Nc2ncc3nc(Nc4c(F)cc(F)cc4F)n([C@H]4CCOC4)c3n2)CC1                  0
27  O=c1[nH]c([C@@H]2CCCN2)nc2c1oc1ccc(Cl)cc12                  0

* * *

biological target: UniProt P11362
Sequence (P11362 whole entry): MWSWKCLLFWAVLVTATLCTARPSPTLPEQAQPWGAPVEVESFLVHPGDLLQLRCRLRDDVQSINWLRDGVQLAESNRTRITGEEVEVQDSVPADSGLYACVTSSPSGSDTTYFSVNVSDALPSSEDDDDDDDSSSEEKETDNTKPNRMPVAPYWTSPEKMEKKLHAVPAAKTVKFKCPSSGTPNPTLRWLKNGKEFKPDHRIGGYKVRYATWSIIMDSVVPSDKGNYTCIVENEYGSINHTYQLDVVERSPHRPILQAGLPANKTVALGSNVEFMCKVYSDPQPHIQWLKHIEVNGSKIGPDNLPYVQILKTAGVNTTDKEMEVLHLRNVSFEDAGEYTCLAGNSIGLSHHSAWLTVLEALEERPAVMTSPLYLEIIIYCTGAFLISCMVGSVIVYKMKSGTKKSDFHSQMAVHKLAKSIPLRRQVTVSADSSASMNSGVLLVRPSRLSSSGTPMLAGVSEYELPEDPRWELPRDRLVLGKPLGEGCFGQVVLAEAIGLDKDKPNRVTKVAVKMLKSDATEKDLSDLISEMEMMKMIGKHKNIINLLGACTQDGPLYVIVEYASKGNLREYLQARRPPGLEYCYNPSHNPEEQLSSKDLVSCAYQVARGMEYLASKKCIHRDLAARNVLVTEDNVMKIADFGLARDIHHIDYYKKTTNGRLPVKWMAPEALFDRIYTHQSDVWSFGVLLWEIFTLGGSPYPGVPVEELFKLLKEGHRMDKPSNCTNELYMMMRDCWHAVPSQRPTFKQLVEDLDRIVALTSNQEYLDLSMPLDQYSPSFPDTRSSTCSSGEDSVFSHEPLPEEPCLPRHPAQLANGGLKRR
Activity calls are given as the source filed them.
Possible outcomes: YES (active), NO (inactive)

> print(dat)
                                    compound  qualitative.label
 1  CNC(=O)c1ccc(Nc2ncc(C(F)(F)F)c(NCc3nccnc3N(C)S(C)(=O)=O)n2)cc1                 NO
 2  CC[C@@](C)(Nc1ccnc(-c2c[nH]c3ncccc23)n1)C(=O)NCC(F)(F)F                 NO
 3  COc1ccc(-c2ccc3ncc4c(c3c2)n(-c2ccc(N3CCNCC3)c(C(F)(F)F)c2)c(=O)n4C)cn1 [BGT-226 FREE BASE]                 NO
 4  CNC(=O)c1cc(COc2nnc(Nc3ccc(Cl)cc3)c3ccoc23)ccn1                 NO
 5          COc1cc2ncnc(Nc3ccc(O)cc3)c2cc1OC                 NO
 6  Cc1cc(C(=O)Nc2cc(Oc3ccc4nc(NC(=O)C5CC5)cn4n3)ccc2C)n(C)n1                 NO
 7  CN1CCN(c2nc(C3=C(c4c[nH]c5ccccc45)C(=O)NC3=O)c3ccccc3n2)CC1                 NO
 8  O=C(Nc1ccc(OC(F)(F)F)cc1)c1sccc1NCc1ccnc2ccccc12                 NO
 9  COc1cc(Nc2ncc(F)c(Nc3ccc4c(n3)N(COP(=O)(O)O)C(=O)C(C)(C)O4)n2)cc(OC)c1OC                 NO
10  Cc1cc(Nc2nc(N[C@@H](C)c3ncc(F)cn3)ncc2Cl)n[nH]1                YES
11  C#Cc1cccc(Nc2ncnc3cc4c(cc23)OCCOCCOCCO4)c1                 NO
12  FC(F)(F)c1ccc(CNc2ccc(Cc3c[nH]c4ncc(Cl)cc34)cn2)cn1                 NO
13  CCc1nc(C(N)=O)c(Nc2ccc(N3CCC(N4CCN(C)CC4)CC3)c(OC)c2)nc1NC1CCOCC1                 NO
14  Cc1cc(-c2cc(OC(=O)c3ccccc3)ccc2Cl)cc2nnc(Nc3ccc(OCCN4CCCC4)cc3)nc12                 NO
15  O=c1[nH]c([C@@H]2CCCN2)nc2c1oc1ccc(Cl)cc12                 NO
16  COc1cc2ncnc(Nc3ccc(F)c(Cl)c3)c2cc1NC(=O)/C=C/CN1CCCCC1 [DACOMITINIB ANHYDROUS]                 NO
17  C=CC(=O)Nc1cc(Nc2nccc(-c3cn(C)c4ccccc34)n2)c(OC)cc1N(C)CCN(C)C                 NO
18  NC[C@@](O)(c1ccc(Cl)cc1)c1ccc(-c2cn[nH]c2)cc1                 NO
19  CC1(COc2ccc3c(c2)ncn3-c2ccc3cccc(N4CCC(N)CC4)c3n2)COC1                 NO
20  c1cc(OCCN2CCCCC2)cc(-c2n[nH]c3ccc(-c4nc[nH]n4)cc23)c1                 NO
21  CCOc1ccn(-c2ccc(F)cc2)c(=O)c1C(=O)Nc1ccc(Oc2ccnc(N)c2Cl)c(F)c1                 NO
22  COc1cccc(Nc2ncnn3ccc(CN4CC[C@@H](N)[C@H](O)C4)c23)c1                 NO
23  CCN1CCN(Cc2ccc(Nc3ncc(F)c(-c4cc(F)c5nc(C)n(C(C)C)c5c4)n3)nc2)CC1                 NO
24  CC(C)CC(=O)Nc1[nH]nc2c1CN(C(=O)C1CCN(C)CC1)C2(C)C                 NO
25  Cc1ccc(C(=O)Nc2ccc(Oc3cc4cnn(C)c4cc3-c3cn[nH]c3)c(F)c2)c(=O)n1-c1ccc(F)cc1                 NO
26  CCc1cc2c(cc1N1CCC(N3CCOCC3)CC1)C(C)(C)c1[nH]c3cc(C#N)ccc3c1C2=O                 NO
27  O=C(O)c1ccc2c(c1)nc(Nc1cccc(Cl)c1)c1ccncc12                 NO
28  COc1cc2nccc(Oc3ccc(NC(=O)C4(C(=O)Nc5ccc(F)cc5)CC4)cc3)c2cc1OC [CABOZANTINIB]                 NO
29  COCCN1CCN(Cc2ccc(-c3n[nH]c4c3C(=O)c3c(NC(=O)NN5CCOCC5)cccc3-4)cc2)CC1                 NO
30  C=CCN(/C=C1/C(=O)O[C@H](COC)[C@@]2(C)C1=C(O)C(=O)C1=C2[C@H](OC(C)=O)C[C@]2(C)C(=O)CC[C@@H]12)CC=C                 NO
31  COc1cc2ncnc3c2cc1OCCCCCN(C)Cc1ccc(Br)cc1N3                 NO
32  COc1cc(F)c(F)c(Nc2ccc(I)cc2F)c1NS(=O)(=O)C1(C[C@H](O)CO)CC1                 NO
